- EXPERIMENTAL SYSTEM: GSK3α (GST-full length GSK3α) (Homo sapiens (Human))
- Sequence (P49840 whole entry): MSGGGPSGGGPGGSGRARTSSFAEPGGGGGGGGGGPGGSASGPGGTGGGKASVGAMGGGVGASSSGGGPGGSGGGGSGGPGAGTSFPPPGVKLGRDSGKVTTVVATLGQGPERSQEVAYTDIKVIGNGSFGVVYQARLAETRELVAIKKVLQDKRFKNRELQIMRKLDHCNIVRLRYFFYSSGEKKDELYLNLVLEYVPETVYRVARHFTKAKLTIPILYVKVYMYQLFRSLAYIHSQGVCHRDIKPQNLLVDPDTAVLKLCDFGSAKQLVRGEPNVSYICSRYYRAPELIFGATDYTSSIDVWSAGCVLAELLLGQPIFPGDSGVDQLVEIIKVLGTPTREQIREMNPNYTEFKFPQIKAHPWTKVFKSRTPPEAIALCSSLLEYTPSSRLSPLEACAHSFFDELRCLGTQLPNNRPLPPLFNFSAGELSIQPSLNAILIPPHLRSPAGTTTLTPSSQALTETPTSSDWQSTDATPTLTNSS
- ASSAY PROCEDURE: GSK3α TR-FRET kinase assay
- Assay type: biochemical
- CONDITION INFO: 1 nM GSK3α, 4 μM ATP, 30 minute preincubation, Table 16; read-out: GSK3-A TR-FRET BIOCHEMICAL (TR-FRET)
Below, each entry is listed with its recorded IC50.

Examples with their reported IC50 follow.
Cc1c(S(=O)(=O)N2CCC3(CC2)C2=C(CC(C)(C)CC2=O)Nc2n[nH]cc23)cnn1C = ≤ 100 nM
CC1CCCC12C1=C(CC(C)(C)CC1=O)Nc1n[nH]cc12 (stereo not shown) = 100 to 1000 nM
CCC1(c2cccc(-c3cc(C)nn3C)c2)C2=C(CC(C)(C)CC2=O)Nc2n[nH]cc21 (stereo not shown) = ≤ 100 nM

Attention now turns to another entry.
Input: Consider the molecule shown here: CCC1(c2cccc(-c3ccnc(C(C)O)c3)c2)C2=C(CC(C)(C)CC2=O)Nc2n[nH]cc21 (stereo not shown) What is its recorded IC50?
Output: ≤ 100 nM
